Molecular target: Adenosine deaminase (Bos taurus, UniProt P56658)
Sequence (P56658 whole entry): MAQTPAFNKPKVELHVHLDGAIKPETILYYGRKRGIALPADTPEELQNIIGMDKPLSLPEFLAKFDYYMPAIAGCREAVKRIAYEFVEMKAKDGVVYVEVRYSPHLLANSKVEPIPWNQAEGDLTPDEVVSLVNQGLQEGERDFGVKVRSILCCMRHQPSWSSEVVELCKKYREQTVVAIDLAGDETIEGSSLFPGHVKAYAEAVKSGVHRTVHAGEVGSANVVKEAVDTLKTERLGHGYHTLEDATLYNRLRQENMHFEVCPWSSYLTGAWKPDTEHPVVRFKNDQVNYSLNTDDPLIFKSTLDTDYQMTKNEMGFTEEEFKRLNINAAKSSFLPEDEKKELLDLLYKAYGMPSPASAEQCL
pKi: −log10 of the molar value.
Could you label it TRUE if measured pKi is 7 or higher, and FALSE otherwise?

As a guide, the following entries are already answered.
- COMPOUND: "NC1=NC=NC2C1C=NN2CCO (stereo unspecified)"
  ASSAYED TARGET: "Adenosine deaminase (Bos taurus, UniProt P56658)"
  QUALITATIVE LABEL: "FALSE"
- COMPOUND: "CCCCCCCCC(O)Cn1cc2c(N)ncnc2n1 (stereo unspecified)"
  ASSAYED TARGET: "Adenosine deaminase (Bos taurus, UniProt P56658)"
  QUALITATIVE LABEL: "TRUE"
- COMPOUND: "CCCCCCC(O)Cn1cc2c(N)ncnc2n1 (stereo unspecified)"
  ASSAYED TARGET: "Adenosine deaminase (Bos taurus, UniProt P56658)"
  QUALITATIVE LABEL: "TRUE"

Query: Does `CCCCCCCC[C@@H](O)Cn1cc2c(N)ncnc2n1` have a reported pKi of at least 7?
Response: TRUE

Query: Same thing, different compound: `CCCCCCCC[C@H](O)Cn1cc2c(N)ncnc2n1`
Response: TRUE
